Cited source for all entries: patent US6479482B2

Each entry below carries its recorded melting point.
ENDPOINT: melting point

chem_smiles=COC(=O)C1=C(C)NC(C)=C(C(=O)OC)C1c1ccc(F)c(NC(=O)NCCCN2CCC(C(C)C)CC2)c1 endpoint="melting point" reported_value="176 to 179 °C"
chem_smiles=COC(=O)C1=C(C)NC(C)=C(C(=O)OC)C1c1cccc(NC(=O)NCCCN2CCN(CC(C)C)CC2)c1.Cl.Cl endpoint="melting point" reported_value="165 to 170 °C"
chem_smiles=COC(=O)C1=C(C)NC(C)=C(C(=O)OC)C1c1cccc(NC(=O)NCCCN2CCN(CC3CC3)CC2)c1.Cl.Cl endpoint="melting point" reported_value="145 to 150 °C"
chem_smiles=COC(=O)C1=C(C)NC(C)=C(C(=O)OC)C1c1cccc(NC(=O)NCCCN2CCNCC2)c1.Cl.Cl endpoint="melting point" reported_value="120 to 130 °C"
chem_smiles=COC(=O)C1=C(C)NC(C)=C(C(=O)OC)C1c1ccc(F)c(NC(=O)NCCCN2CCC(C)CC2)c1 endpoint="melting point" reported_value="188 to 190 °C"
chem_smiles=CCCN1CCN(CCCNC(=O)Nc2cccc(C3C(C(=O)OC)=C(C)NC(C)=C3C(=O)OC)c2)CC1.Cl.Cl endpoint="melting point" reported_value="190 to 200 °C"
chem_smiles=COC(=O)C1=C(C)NC(C)=C(C(=O)OC)C1c1cccc(NC(=O)NCCCN2CCN(C3CCCC3)CC2)c1.Cl.Cl endpoint="melting point" reported_value="195 to 200 °C"
chem_smiles=COC(=O)C1=C(C)NC(C)=C(C(=O)OC)C1c1cccc(NC(=O)NCCCN2CCC3(CC2)OCCO3)c1 endpoint="melting point" reported_value="100 to 105 °C"
chem_smiles=COC(=O)C1=C(C)NC(C)=C(C(=O)OC)C1c1cccc(NC(=O)NCCCN2CCN(C(C)C)CC2)c1.Cl.Cl endpoint="melting point" reported_value="170 to 180 °C"
chem_smiles=COC(=O)C1=C(C)NC(C)=C(C(=O)OC)C1c1ccc(F)c(NC(=O)NCCCN2CCC(C(C)(C)C)CC2)c1 endpoint="melting point" reported_value="191 to 193 °C"
chem_smiles=COC(=O)C1=C(C)NC(C)=C(C(=O)OC)C1c1cccc(NC(=O)NCCCN2CCN(C(=O)OC(C)(C)C)CC2)c1 endpoint="melting point" reported_value="125 to 130 °C"

* * *

ENDPOINT: melting point

chem_smiles=CCN1CCN(CCCNC(=O)Nc2cccc(C3C(C(=O)OC)=C(C)NC(C)=C3C(=O)OC)c2)CC1.Cl.Cl endpoint="melting point" reported_value="120 to 125 °C"
chem_smiles=CCCCN1CCN(CCCNC(=O)Nc2cccc(C3C(C(=O)OC)=C(C)NC(C)=C3C(=O)OC)c2)CC1.Cl.Cl endpoint="melting point" reported_value="145 to 150 °C"
chem_smiles=COC(=O)C1=C(C)NC(C)=C(C(=O)OC)C1c1cccc(NC(=O)NCCCN2CCC(=O)CC2)c1.Cl endpoint="melting point" reported_value="70 to 75 °C"
chem_smiles=COC(=O)C1=C(C)NC(C)=C(C(=O)OC)C1c1cccc(NC(=O)NCCCN2CCN(C(C)(C)C)CC2)c1.Cl.Cl endpoint="melting point" reported_value="175 to 180 °C"
